Entry source: PubChem BioAssay (NCI)

Please provide measured TGI for the entries that follow.
- Test system: SNB-19 CNS
- EXPERIMENT_SUMMARY: NCI tumour cell line growth inhibition, 48 h

Kindly give each listed record's TGI.
1. CCCCCCCCSC1=C(Cl)C(=O)C(OC)=C(OC)C1=O
2. COc1cc2c(cc1OCCCN1C(=O)c3cccc4cccc(c34)C1=O)N=C[C@@H]1CCCN1C2=O
3. COc1cc(/C=C2\CCCCC3=C2N=C2SC(C)=CN2C3c2cc(OC)c(OC)c(OC)c2)cc(OC)c1OC (stereo unspecified)
4. C=CC12CCN(CC1)C(C(O)c1ccnc3ccc(OC)cc13)C2 (stereo unspecified)
5. C=C(C)CNCCN
6. Cc1c2c(c(C)n1-c1ccccc1)C(=O)N(CCN1CCN(c3cccc(C(F)(F)F)c3)CC1)C2=O

# output
1. 24.3 µM
2. > 100 µM
3. > 100 µM
4. > 100 µM
5. > 100 µM
6. > 100 µM

====

- Test system: OVCAR-5 ovarian
- EXPERIMENT_SUMMARY: NCI tumour cell line growth inhibition, 48 h
MEASUREMENT_KIND: TGI

Kindly give each listed record's TGI.
1. O=c1[nH]c(O)c(C=Nc2ccc(-c3nc4ccccc4o3)cc2)c(=O)[nH]1
2. NC(=O)c1cc(I)ccc1NC(=O)/C=C/c1ccccc1
3. CCOC(=O)/C(C(C)=O)=C(\OC(C)=O)c1ccncc1C(=O)O
4. Cc1cc(C[C@H]2O[C@@H]3OC(C)(C)O[C@@H]3[C@H]3OC(C)(C)O[C@H]32)c2ccccc2n1
5. CN1Nc2ccccc2CC1=O

# output
1: > 100 µM; 2: > 51.8 µM; 3: > 100 µM; 4: > 100 µM; 5: > 100 µM

====

- System: SK-OV-3 ovarian
- EXPERIMENT_SUMMARY: NCI tumour cell line growth inhibition, 48 h
MEASUREMENT_KIND: TGI

Consider the worked cases shown below.
- CCOC(=O)c1c2cccccc-2nc1Nc1cccc2c(C)ccnc12: > 10 µM
- CCCCCCCCc1cc2c(O)c(c1)Cc1cc(CCCCCCCC)cc(c1O)Cc1cc(CCCCCCCC)cc(c1O)Cc1cc(CCCCCCCC)cc(c1O)Cc1cc(CCCCCCCC)cc(c1O)Cc1cc(CCCCCCCC)cc(c1O)C2: > 100 µM
- O=C1/C(=C/c2ccc(Cl)cc2)CCCc2ccccc21: 96.5 µM

# input Which measured TGI value corresponds to OCCCc1ccc2c(c1)[C@H](CO)[C@@H](c1ccc(O)cc1)O2 ?
# output > 100 µM

====

- Tested on: MDA-MB-435
- EXPERIMENT_SUMMARY: NCI tumour cell line growth inhibition, 48 h
MEASUREMENT_KIND: TGI

* O=[N+]([O-])c1cccnc1N=Nc1c(O)[nH]c2ccccc12 | > 100 µM
* CC1OC(O[C@H]2C3C=CO[C@@H](OC4OC(CO)C(O)C(O)C4O)C3[C@@]3(COC(=O)/C=C/c4ccccc4)O[C@@H]23)C(O)C(O)C1O (stereo partly drawn) | > 100 µM
* Cc1nc2sccn2c1-c1nc2sccn2c1/C=C1/C(=O)Nc2ccccc21 | 2.52 µM
* COc1ccc(C(=O)NCCN(C)C)c2nc3ccccc3cc12 | 5.13 µM
* COc1ccc(-c2c(C#N)c(N3CCOCC3)nc3[nH]c(=S)[nH]c(=S)c23)cc1OC | > 100 µM
* COc1ccc(-c2nc3ccccc3c(=S)n2OC(C)=O)cc1 | > 25 µM
* O=C(O)C(O)C(O)C(O)C(O)CO (stereo not drawn) | > 100 µM

# input Which measured TGI value corresponds to CC(C)(CO)CNc1nc(N)nc(Cl)c1/C=N/O ?
# output > 100 µM

====

- Test system: HCT-116 colon
- EXPERIMENT_SUMMARY: NCI tumour cell line growth inhibition, 48 h
MEASUREMENT_KIND: TGI

Kindly give each listed record's TGI.
1. O=C1C(=Nc2ccc(Nc3ccccc3)cc2)Oc2ccccc21
2. COc1cc(O)c2c(=O)c(OC)c(-c3ccc(OC)c(O)c3)oc2c1
3. CNc1cc2oc(=O)cc(C)c2cc1C
4. c1ccc2c(c1)CCc1c(-c3ccncc3)n[nH]c1-2
5. Nc1nc(Cl)nc2c1ncn2C1CC(O)C(CO)O1 (stereo unspecified)
6. Nc1c(S(=O)(=O)c2ccc(Cl)cc2)c2nc3ccccc3nc2n2ccnc12
7. c1ccc(C(C(=Nc2ccc(Cc3ccc(N=C(C(c4ccccc4)c4ccccc4)N4CC4)cc3)cc2)N2CC2)c2ccccc2)cc1
8. Nc1c(C(=O)Nc2ccccn2)sc2nc3c(cc12)C(=O)CCC3

# output
["3.18 µM", "> 100 µM", "> 100 µM", "46.2 µM", "> 100 µM", "> 100 µM", "> 100 µM", "> 100 µM"]

====

Please provide measured TGI for the entries that follow.
- System: U251 CNS
- EXPERIMENT_SUMMARY: NCI tumour cell line growth inhibition, 48 h

- COc1ccc(Cl)cc1NC(=O)c1ccc(NC2=C(Cl)C(=O)N(Cc3ccccc3)C2=O)cc1: > 100 µM
- O=C(CN1C(=O)CC(c2ccccc2)(c2ccccc2)C1=O)N1CCN(CCO)CC1: > 100 µM
- C=C(C)[C@@H]1CC[C@]2(CN)CC[C@]3(C)[C@H](CC[C@@H]4[C@@]5(C)CCCNC(C)(C)[C@@H]5CC[C@]43C)[C@@H]12: 3.33 µM
- CN1Cc2c(nc(-c3ccccc3)c[n+]2[O-])N(C)C1: > 100 µM
- OCCCc1ccc2c(c1)[C@H](CO)[C@@H](c1ccc(O)cc1)O2: > 100 µM

Kindly give each listed record's TGI.
1. CCCN(CCC)c1c([N+](=O)[O-])cc(C(=O)N(CC)CC)cc1[N+](=O)[O-]
2. Cc1cc(C)nc(NC(=S)Nc2ccc([N+](=O)[O-])cc2)c1
3. COc1ccc(-c2c(C#N)c(N3CCOCC3)nc3[nH]c(=S)[nH]c(=S)c23)cc1OC
4. COc1cccc2c1O/C(=C\c1ccc([N+](=O)[O-])s1)C2=O

# output
["32.7 µM", "> 100 µM", "> 100 µM", "> 20.3 µM"]

====

- Test system: MALME-3M melanoma
- EXPERIMENT_SUMMARY: NCI tumour cell line growth inhibition, 48 h
MEASUREMENT_KIND: TGI (µM)
Give bare numbers, in µM.

* O=C(CNc1ccc(Cl)cc1Cl)Nn1c(-c2ccccc2)nc2ccccc2c1=O | 34.6
* CN1CC[C@]2(c3cccc(O)c3)CC(=O)/C(=C/c3ccccc3)[C@@H]1C2 | 10.4
* CCOC(=O)CNC(=O)NC12CC3CC(CC(C3)C1)C2 | 420

The record that follows has no TGI shown yet.
# input Which measured TGI value corresponds to O=C1c2cccc3cccc(c23)C(=O)N1CCCNCCCCNCCCNCCCN1C(=O)c2cccc3cccc(c23)C1=O ?
# output 1.25

====

- Tested on: MOLT-4 leukemia
- EXPERIMENT_SUMMARY: NCI tumour cell line growth inhibition, 48 h
MEASUREMENT_KIND: GI50

Consider the worked cases shown below.
• NC(N)=Nc1nc2ccccc2o1 = > 100000 nM
• C=CC1(C)CC(=O)C2(O)C(C)(O1)C(OC(C)=O)C(O)C1C(C)(C)CCC(O)C12C (stereo not given) = > 91200 nM
• NC(=O)c1cc(I)ccc1NC(=O)/C=C/c1ccccc1 = 539 nM

Kindly give each listed record's GI50.
1. O=C(Nc1nc(-c2c[nH]c3ccccc23)cs1)c1n[nH]c(=O)c2ccccc12
2. Nc1c(C(=O)Nc2ccccn2)sc2nc3c(cc12)C(=O)CCC3

# output
1: 792 nM; 2: > 100000 nM

====

- Tested on: SF-295 CNS
- EXPERIMENT_SUMMARY: NCI tumour cell line growth inhibition, 48 h
MEASUREMENT_KIND: TGI

Consider the worked cases shown below.
- COc1ccc(/C=N/NC(=O)c2ccc(O)c(CN(C)C)c2)cc1: > 100 µM
- N#CC(I)CS(=O)(=O)c1ccccc1 (stereo unspecified): > 100 µM
- CC(C)Oc1cccc(N2C(=NCc3c[nH]c4ccccc34)Nc3ccncc3S2(=O)=O)c1: > 100 µM
- COCOCCC#CCO: > 100 µM
- COc1cc(C[P+](c2ccccc2)(c2ccccc2)c2ccccc2)cc(OC)c1OC: > 100 µM
- CC(C)(C)OC(=O)NC(CSSCC(NC(=O)OC(C)(C)C)C(=O)O)C(=O)O (stereo unspecified): > 100 µM
- C=C1C(=O)[C@@]23CC[C@@H]4[C@@]5(C)CCC[C@@]4(OC5=O)[C@@]2(C)CC[C@@H]1C3: 20.9 µM
- CNc1nc(N)nc(Nc2ccc(I)cc2)c1N=O: > 100 µM

Kindly give each listed record's TGI.
1. CO/N=C(/C(=O)OC)c1ccccc1COc1ccccc1C(F)(F)F
2. COc1ccc(/C=C\c2cc(OC)c(OC)c(OC)c2)cc1OCC(=O)O
3. COc1cccc2c1O/C(=C\c1ccc([N+](=O)[O-])s1)C2=O

# output
1. > 100 µM
2. 35.8 µM
3. > 100 µM
